B1: Dystrobrevin alpha, residues 235 to 294; numbered along this chain, Q9Y4J8 (parent)
chain: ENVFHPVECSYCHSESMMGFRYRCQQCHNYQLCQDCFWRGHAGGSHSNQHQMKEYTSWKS

# Variants of: B1
# measurement.description: abundance fitness (aPCA) (normalised: wild type 0, dead -1); higher = more abundant; growth selection in yeast, the domain comes from the species named
# experimental.context: Homo sapiens
// abundance fitness lookup, one value per entry

Below are worked cases with known answers.
ENVFHPVECSYCHSESMMGFRYRCQQCHNYQLCQDCFWRGHAGGSHSNQHTMKEYTSWKS [Q51T] ... 0.042
ENVFHPVECSYCHSESMMGFRYRCQQCHNLQLCQDCFWRGHAGGSHSNQHQMKEYTSWKS [Y30L] ... -0.36
ENVFHPVECSYCHSESMMGFRYRCQQCHNYQKCQDCFWRGHAGGSHSNQHQMKEYTSWKS [L32K] ... -0.538

Exercise: Which value of abundance fitness has been reported for ENVFHPVECSYCHSESMMGFRYRCQQCHNYQYCQDCFWRGHAGGSHSNQHQMKEYTSWKS [L32Y] in the records?
Key: -0.38

Exercise: Which value of abundance fitness has been reported for ENVFHPVECSYCHSESMMGFRYICQQCHNYQLCQDCFWRGHAGGSHSNQHQMKEYTSWKS [R23I] in the records?
Key: -0.05

Exercise: Which value of abundance fitness has been reported for ENVFHPVMCSYCHSESMMGFRYRCQQCHNYQLCQDCFWRGHAGGSHSNQHQMKEYTSWKS [E8M] in the records?
Key: -0.35

Exercise: Which value of abundance fitness has been reported for ENVFHPVECSYCHSESMMGFRYRCQQCHNYQWCQDCFWRGHAGGSHSNQHQMKEYTSWKS [L32W] in the records?
Key: -0.751

Exercise: Which value of abundance fitness has been reported for ENVLHPVECSYCHSESMMGFRYRCQQCHNYQLCQDCFWRGHAGGSHSNQHQMKEYTSWKS [F4L] in the records?
Key: -0.039
